All values here come from PubChem BioAssay AID1159580.

# experiment.summary: chemical genetic growth profiling, strain panel (AID 1159580);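 also: tested at 20 µM; growth read once vehicle control cultures reached saturation at 30 °C; lower values mean less growth of the strain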
# condition.set: S. cerevisiae deletion strains, growth OD, locus YBR171W, strain sec66
Screen size: about 5,500 compounds; about 2,000 (36%) were called active. Roughly 18% stayed inconclusive and do not appear here. Rule as the data show it: active = normalized growth mostly below about 0.91 (no sharp cut-off); inconclusive = no clear call, values can overlap the other calls; inactive = mostly above about 0.92. This is one part of the list.
Thanks in advance; please answer with one of these: active, inactive

[[record]]
compound = "Nc1ccc([As](=O)(O)O)cc1"
assigned_category = "inactive"

[[record]]
compound = "O=C(O)/C=C/C=C/c1ccccc1"
assigned_category = "active"

[[record]]
compound = "OC[C@@H]1CCCN2CCCC[C@H]12"
assigned_category = "inactive"


Exercise: # fetch the recorded call for O=C1C=CC2=C3c4cc(O)c(O)cc4CC3(O)COC2=C1O (stereo not drawn) here
Solution: inactive
